# measuredOn: recombinant SARS-CoV-2 Main protease (Mpro) (Severe acute respiratory syndrome coronavirus 2 (2019-nCoV) (SARS-CoV-2), UniProt P0DTD1)
# procedureSummary: Cov Mpro Biochemical IC50 Assay
# conditionSummary: recombinant SARS-CoV-2 Mpro, fluorogenic peptide substrate; read-out: MPro IC50
pIC50: −log10 of the molar value.
Attribute: pIC50

{"molecule": "O=c1[nH]c2cc(-c3ccccc3Cl)ccc2c(=O)n1-c1cnccc1N1CCOCC1 [Example 128]", "pIC50": 6.29}
{"molecule": "Cn1cnc(Cn2c(=O)n(-c3cncc4ccccc34)c(=O)c3sc(-c4ccccc4Cl)cc32)n1 [Example 153]", "pIC50": 7.73}
{"molecule": "O=c1c2sc(-c3ccccc3Cl)cc2n(Cc2cccnc2)c(=O)n1-c1cncc2ccccc12 [Example 156]", "pIC50": 6.78}
{"molecule": "Cc1ccc(Cl)c(-c2cc3[nH]c(=O)n(-c4cncc5ccccc45)c(=O)c3s2)c1 [Example 338]", "pIC50": 7.86}
